Experiment: Inhibition of HCV5 NS3 protease
Set-up: species or system Hepatitis C virus genotype 5
metric_name: pIC50
Please treat pIC50 as minus the base-10 logarithm of the molar concentration.

Query string: Entry CC(C)(C)OC(=O)N[C@H]1CCCCC/C=C\[C@@H]2C[C@@]2(C(=O)NS(=O)(=O)C2CC2)NC(=O)[C@@H]2C[C@@H](OC(=O)N3Cc4cccc(F)c4C3)CN2C1=O needs its pIC50 filled in; supply it.
Result string: 9.70

* * *

Molecular target: Ras-related protein Rap-1A (Homo sapiens)
Sequence (P62834 whole entry): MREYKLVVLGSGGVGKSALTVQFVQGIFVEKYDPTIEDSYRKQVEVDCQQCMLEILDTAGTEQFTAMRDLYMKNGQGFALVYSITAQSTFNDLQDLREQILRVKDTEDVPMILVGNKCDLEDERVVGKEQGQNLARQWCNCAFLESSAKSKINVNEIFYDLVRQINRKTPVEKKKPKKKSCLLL
Experiment: Inhibition of Rap1a
Could you please report measured EC50 for the items listed next?

Query string: Output measured EC50 for this item: N#Cc1ccc2cc1Oc1ccc3cccc(c3c1)N1CCN(CC1=O)Cc1cncn1C2
Result string: > 10000 nM

Query string: Let me know recorded EC50 for N#Cc1ccc2cc1Oc1ccc(CCC3CCCCC3)c(c1)CN1CCN(CC1=O)Cc1cncn1C2 , thanks.
Result string: 140 nM

* * *

Molecular target: Cyclin-dependent kinase 1 (Homo sapiens)
Sequence (P06493 whole entry): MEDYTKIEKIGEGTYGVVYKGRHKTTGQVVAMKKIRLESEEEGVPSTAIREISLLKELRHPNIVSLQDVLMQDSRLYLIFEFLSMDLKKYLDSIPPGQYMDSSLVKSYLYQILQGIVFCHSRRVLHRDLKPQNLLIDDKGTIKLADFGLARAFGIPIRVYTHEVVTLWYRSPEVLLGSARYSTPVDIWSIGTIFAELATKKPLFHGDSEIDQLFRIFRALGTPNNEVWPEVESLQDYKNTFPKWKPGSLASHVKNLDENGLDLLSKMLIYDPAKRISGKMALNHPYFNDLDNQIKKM
Assay: Inhibition of CDK1
metric_name: pIC50
Hey, just a heads up that pIC50 is the negative log base 10 of the concentration in molar.

Query string: Tell us which pIC50 value is on record for N#CCNc1nc(Nc2ccccc2)ncc1Br
Result string: 7.00

* * *

Test: Inhibition of FTase
Exercise: for every item that follows, state its recorded pIC50.
Field pIC50 (float): negative decimal logarithm of the concentration in molar.

Query string: Specify reported pIC50 for the molecule shown: N#Cc1ccccc1Oc1ccc2cccc(N3CCN(Cc4cnc[nH]4)CC3=O)c2c1
Result string: 5.35

Query string: In one line, give reported pIC50 of the entry C[C@H]1NCc2cncn2Cc2ccc(C#N)c(c2)Oc2ccc3cccc(c3c2)NC1=O .
Result string: 8.89

Query string: Could you please provide reported pIC50 for N#Cc1ccc2cc1Oc1ccc3cccc(c3c1)N1CCN(CC1=O)Cc1cncn1C2 ? Thanks!
Result string: 10.00

Query string: Read off the recorded pIC50 for N#Cc1ccc2cc1Oc1ccc(CCC3CCCCC3)c(c1)CN1CCN(CC1=O)Cc1cncn1C2
Result string: 8.80

Query string: Output pIC50 of Cc1ncn(Cc2ccc(C#N)cc2)c1CN1CC(=O)N(c2cccc(Cl)c2)C[C@@H]1CCS(C)(=O)=O
Result string: 6.32

* * *

Target: UniProt:P0DMS8
Sequence (P0DMS8 whole entry): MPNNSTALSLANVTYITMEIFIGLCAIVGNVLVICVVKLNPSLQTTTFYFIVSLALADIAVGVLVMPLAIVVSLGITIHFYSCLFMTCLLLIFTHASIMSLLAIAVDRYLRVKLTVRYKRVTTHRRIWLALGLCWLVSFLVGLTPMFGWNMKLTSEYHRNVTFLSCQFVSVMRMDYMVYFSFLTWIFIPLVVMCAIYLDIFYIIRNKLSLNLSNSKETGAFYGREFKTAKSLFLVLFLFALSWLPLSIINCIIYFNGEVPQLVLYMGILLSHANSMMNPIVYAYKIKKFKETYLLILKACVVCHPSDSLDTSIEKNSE
Test: Antagonist activity at adenosine A3 receptor
metric_name: IC50 (nM)
Provide only the numeric value, understood in nM.

Query string: Report value only: IC50, UniProt:P0DMS8, Cn1c2cnc1OCC/C=C\CCCCOc1ccccc1-2
Result string: 850

* * *

Test: Inhibition of HCV6 NS3 protease
Parameters: species or system Hepatitis C virus genotype 6
metric_name: pIC50
Would you please state pIC50, meaning minus log10 of the concentration in mol/L, as a bare number?

Query string: Please indicate pIC50 recorded for CC(C)(C)OC(=O)N[C@H]1CCCCC/C=C\[C@@H]2C[C@@]2(C(=O)NS(=O)(=O)C2CC2)NC(=O)[C@@H]2C[C@@H](OC(=O)N3Cc4cccc(F)c4C3)CN2C1=O [DANOPREVIR]
Result string: 9.70

* * *

Target: Beta-secretase 1 (Homo sapiens, UniProt P56817)
Sequence (P56817 whole entry): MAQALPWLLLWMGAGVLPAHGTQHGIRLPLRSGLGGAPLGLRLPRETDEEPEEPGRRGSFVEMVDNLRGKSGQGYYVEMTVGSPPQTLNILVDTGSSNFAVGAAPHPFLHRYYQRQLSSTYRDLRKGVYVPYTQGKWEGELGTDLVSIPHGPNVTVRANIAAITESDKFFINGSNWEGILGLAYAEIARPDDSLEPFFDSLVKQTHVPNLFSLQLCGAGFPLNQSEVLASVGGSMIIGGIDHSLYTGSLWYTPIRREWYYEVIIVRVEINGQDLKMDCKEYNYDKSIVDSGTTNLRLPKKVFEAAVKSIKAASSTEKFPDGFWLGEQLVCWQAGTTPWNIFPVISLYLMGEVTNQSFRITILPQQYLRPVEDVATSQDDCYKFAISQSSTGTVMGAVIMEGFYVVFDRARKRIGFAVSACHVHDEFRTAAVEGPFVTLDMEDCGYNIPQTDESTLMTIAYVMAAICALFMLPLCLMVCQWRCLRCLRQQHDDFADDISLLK
Assay: Inhibition of BACE1 by cell based assay
metric_name: IC50 (nM)
Write the answer as a number in nM, unit excluded.

Query string: Look up and report measured IC50 for this entry: CC(C)[C@H](NC(=O)OC(C)(C)C)C(=O)N[C@@H](C)C(=O)N[C@@H](Cc1ccccc1)[C@@H](O)C[C@@H](C)C(=O)N[C@H](C(=O)NCc1ccncc1)C(C)C
Result string: 2100

* * *

Would you kindly list half-life for each of these compounds?
Test: Half life in dog
Type: ADME, organism-based, Canis lupus familiaris
Conditions: in vivo
Field format: number, assumed h, no unit text.

Query string: Determine from records and report half-life for COc1ccc2c(O[C@@H]3C[C@H]4C(=O)N[C@]5(C(=O)O)C[C@H]5/C=C\CCCCC[C@H](NC(=O)OC5CCCC5)C(=O)N4C3)cc(-c3csc(NC(C)C)n3)nc2c1
Result string: 4.2

Query string: Give the reported value of half-life for this record: N#Cc1ccc2cc1Oc1ccc3cccc(c3c1)N1CCN(CC1=O)Cc1cncn1C2
Result string: 1

Query string: Complete the entry with half-life for COc1ccc2c(O[C@@H]3C[C@H]4C(=O)N[C@]5(C(=O)NS(=O)(=O)C6CC6)C[C@H]5/C=C\CCCCN(C)C(=O)[C@@H]4C3)cc(-c3nc(C(C)C)cs3)nc2c1C
Result string: 5.1

* * *

Test: Inhibition of HCV 1a NS3 protease
Set-up: species or system Hepatitis C virus subtype 1a
metric_name: Ki (nM)
The response must be a number in nM with no trailing unit.

Query string: Supply Ki value. Item: COc1ccc2c(O[C@@H]3C[C@H]4C(=O)N[C@]5(C(=O)O)C[C@H]5/C=C\CCCCC[C@H](NC(=O)OC(C)(C)C)C(=O)N4C3)cc(-c3ccccc3)nc2c1
Result string: 1.4

Query string: Dear colleague, please send me the reported Ki for COc1ccc2c(O[C@@H]3C[C@H]4C(=O)N[C@]5(C(=O)O)C[C@H]5/C=C\CCCCC[C@H](NC(=O)OC5CCCC5)C(=O)N4C3)cc(-c3csc(NC(C)C)n3)nc2c1 when you can.
Result string: 0.3

Query string: Find the measured Ki of COc1ccc2c(O[C@@H]3C[C@H]4C(=O)N[C@]5(C(=O)NS(=O)(=O)C6CC6)C[C@H]5/C=C\CCCCN(C)C(=O)[C@@H]4C3)cc(-c3nc(C(C)C)cs3)nc2c1C and report it.
Result string: 0.5

* * *

Assay: Inhibition of HCV 3a NS3 protease
Design: species or system Hepatitis C virus subtype 3a
metric_name: pIC50
Scale: pIC50 equals -log10([C]), with [C] in mol/L.

Query string: Look up and state reported pIC50 for CC(C)(C)OC(=O)N[C@H]1CCCCC/C=C\[C@@H]2C[C@@]2(C(=O)NS(=O)(=O)C2CC2)NC(=O)[C@@H]2C[C@@H](OC(=O)N3Cc4cccc(F)c4C3)CN2C1=O
Result string: 9.70

* * *

Target: Growth hormone secretagogue receptor type 1 (Homo sapiens)
Assay: Agonist activity at ghrelin receptor by cell based assay
Assay type: functional
metric_name: EC50 (nM)
Return type: number; implicit unit nM.

Query string: State its EC50 for this compound: CC[C@H](C)[C@@H]1NCCOc2ccccc2CCCNC(=O)[C@@H](Cc2ccc(Cl)cc2)NC(=O)[C@@H](C)N(C)C1=O
Result string: 14

* * *

Can you tell me pEC50 for the items I'm about to list?
Target: Growth hormone secretagogue receptor type 1 (Homo sapiens, UniProt Q92847)
Sequence (Q92847 whole entry): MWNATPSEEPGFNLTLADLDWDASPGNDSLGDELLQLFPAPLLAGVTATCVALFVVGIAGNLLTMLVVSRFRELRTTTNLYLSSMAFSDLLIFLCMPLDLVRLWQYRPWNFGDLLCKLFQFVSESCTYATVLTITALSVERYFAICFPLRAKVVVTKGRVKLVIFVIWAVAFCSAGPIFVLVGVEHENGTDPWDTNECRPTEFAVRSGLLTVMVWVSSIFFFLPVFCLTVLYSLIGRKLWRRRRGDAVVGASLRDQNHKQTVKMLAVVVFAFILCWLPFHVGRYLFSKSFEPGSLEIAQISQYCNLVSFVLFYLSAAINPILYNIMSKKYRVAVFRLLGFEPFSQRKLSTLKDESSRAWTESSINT
Experiment: Agonist activity at ghrelin receptor
Type: functional
Quick note: pEC50 means taking -log10 of the concentration in moles per liter.

Query string: Check the records and state pEC50 for CCC[C@@H]1NCCOc2ccccc2/C=C/CNC(=O)[C@@H](Cc2ccccc2)NC(=O)CN(C)C1=O
Result string: 7.17

Query string: Specify measured pEC50 for C[C@@H]1CN[C@@H](C2CC2)C(=O)N(C)[C@H](C)C(=O)N[C@H](Cc2ccc(F)cc2)C(=O)NCCCc2ccccc2O1 [ULIMORELIN] .
Result string: 7.57

* * *

Exercise: for every item that follows, state its recorded Ratio IC50.
Test: Selectivity ratio of IC50 for tPa to IC50 for thrombin

Query string: Provide Ratio IC50 value for the following compound: O=C1Cn2c(Cl)cnc(c2=O)N[C@@H](Cc2ccccc2)CNCCCNCCOc2ccc(Cl)cc2CN1
Result string: 7100

Query string: Retrieve Ratio IC50 measured for O=C1COc2ccc(Cl)cc2CNC(=O)[C@@H]2CCCN2C(=O)[C@@H](C2CCCCC2)NC(=O)CCCN1 and print it.
Result string: > 2000

Query string: Consider the compound O=C1COc2ccc(Cl)cc2CNC(=O)[C@@H]2CCCN2C(=O)[C@@H](C2CCCCC2)NC(=O)CCCCN1 and give its recorded Ratio IC50.
Result string: > 2000

Query string: Provide one value: measured Ratio IC50 of O=C1COc2ccc(Cl)cc2CNC(=O)[C@@H]2CCCN2C(=O)[C@@H](C2CCCCC2)NC(=O)CN1
Result string: > 2000

* * *

Target: D(1A) dopamine receptor (Homo sapiens)
Sequence (P21728 whole entry): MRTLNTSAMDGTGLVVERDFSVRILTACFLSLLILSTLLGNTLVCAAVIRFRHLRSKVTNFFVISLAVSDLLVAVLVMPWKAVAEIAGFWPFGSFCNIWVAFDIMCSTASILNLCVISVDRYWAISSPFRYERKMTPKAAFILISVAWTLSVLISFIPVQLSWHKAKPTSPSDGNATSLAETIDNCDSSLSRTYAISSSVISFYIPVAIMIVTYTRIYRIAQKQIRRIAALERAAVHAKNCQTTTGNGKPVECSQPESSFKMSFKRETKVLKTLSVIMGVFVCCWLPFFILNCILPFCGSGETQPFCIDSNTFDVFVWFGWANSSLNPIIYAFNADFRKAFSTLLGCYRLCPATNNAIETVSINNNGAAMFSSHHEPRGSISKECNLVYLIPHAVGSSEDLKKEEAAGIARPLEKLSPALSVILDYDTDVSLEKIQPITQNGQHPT
Assay: Antagonist activity at dopamine D1 receptor
Assay type: functional
metric_name: IC50 (µM)
Numeric only. Scale: µM

Query string: Answer with the recorded IC50 for the molecule listed here: Cn1c2cnc1OCC/C=C\CCCCOc1ccccc1-2
Result string: 1.1
